METHOD SUMMARY: yeast display, Sf9 membrane polyspecificity reagent, FACS + sequencing; frameworks hold sequencing errors

SEQUENCE	polyreactivity (PSR sort gate)
QVQLVESGGGVVQAGGSLRLSCAASGSIFRYYTRGGYRQAPGKVRELVAAISRSGGSTYYADSVKGRFTISRDNAKNTVYLQMNSLKPEDTAVYYCAARYKRAQGYREGDYWGQGTQVTVSS	high polyreactivity
QVQLVDSGGGLVQAGVSLRLSCAASGSIFLLNAMGWYRQATGKERELVAAISWGGGSTYYADSVKGRFTISRDNAKNTVYLQMNSLKPEDTAVDYCNASVTLGQEVDYWGLGTQVTVSS	low polyreactivity
QLQLVESGGGLVQAGGSLRLSCAASGLIFPFYAMGWYRQAPGKERELVAAITSSGNTYYADSVKGLFTISRDNAKNTVYLQMNSLKPEDTAVYYCAADGSRIVKFDYWGQGTQVTVSS	high polyreactivity
QFQLVESGGGLVQAGGSLRLSCAASGRIFIIYAMGWYRQAPGKERELVAAINRGATTNFADSVKGRFTISRDNAKNTVYLQMNSLKPEDTAVYYCAACSGPSLSRFLRYANDYWGQGTQVTLSS	high polyreactivity
QVQLVESVRGLVQAGGSLRLSCAASGSTFDNNAMGWYRQAPGKEREFVAAITYSGGGSTSYADSVKGRFTISRDNAKNTVYLQMNSLKPEDPAVYDCAAREFETDGYSLVAYNYWGQGTQVTVSS	low polyreactivity
QVQLVESGGGLVQAGGSLRLSCAASGSILGGNAMGWYRQAPGKERELVAAITFSGGGTYYADSVKGRFTISRDNAKNTVYLQMNRLKPEDTAVYYCNAFGPDYYHVYPAEDYWGQGTQVTVSS	low polyreactivity
QVQLVDSGGGLVQAGGSLRLSCAASGRIFQQNAMGWYRQAPGKERELVAAISWRGTSTYYADSVKGRFTISRDNAKNTVYLQMNSLKPEDTAVYYCAAQGYAYTLVAKVYRWYEYAYWGQGTQVTVSS	high polyreactivity
QVQLVESGGGLVQAGGSLRLSCAASGNIFRYYTMGWYRQAPGKERELVATISYADSVKGRFTISRDNAKNTVYLQMNSLKPEDTAVYYCKADFAPWDKQDYPYDYDYWGQGTQVTVSS	low polyreactivity
QVHLVESGGGLVQAGGSLRLTCAASGIIFRWYAMGWYRQAPGKERELVAAISSGGGRTHYADSVKGRFTISRDNAKNTVYLQMNSLKPEDTAVYYCAAALRGQSSRFDYWGQGTQVTVSS	high polyreactivity
QVQLVESGGGLVQAGGILRLSCAASGITFRRSAKGWYRQAPGKERELVAGISYSGGTTYYADSVKGRFTISRDNAKNTVYLQMNSLKAEDTAVYYCAAKRISYTREGYSQYDDWGQGSQVTVSS	high polyreactivity
QVHLVESGGGLVQAGGSLRLSCAASGRTFQWYAMGWYRQAPGKERELVAAIRYSAGSTYYADSVKGRFTISRDNAKNTVYLQMNSLKPEDTAVYYCAAEPYPYGPYYFLWLRYDYWGQGTHVTVSS	low polyreactivity
